# System: A-431
# ASSAY EXPLANATION: Cell proliferation assay, A-431 cells (GI50, Table 6)
# Type: cell-based
# CONDITION: Homo sapiens, A-431, A-431 cells
Documented GI50 across a set of compounds
MEASUREMENT NAME: GI50

>>> reported_result("Cc1cc2cc(n1)-c1cnn(C)c1OCCN1CC3CCC(C3)(C1)n1c(nc3ccc(N4CC5CN(C)CC5C4)cc31)NC2=O (single isomer, unassigned) [Example B43B]")
"0.437 µM"
>>> reported_result("Cc1cc2cc(n1)-c1cc(=O)n(C)cc1OCCC[C@@H](C)Cn1c(nc3ccccc31)NC2=O [Example B11]")
"5.38 µM"
>>> reported_result("Cc1cc2cc(n1)-c1cnn(C)c1OCCN1CC3CCC(C3)(C1)n1c(nc3ccc(N4CCC(N5CCOCC5)C4)cc31)NC2=O (single isomer, unassigned) [Example B44B1]")
"3.69 µM"
>>> reported_result("CN(C)CCCN(C)c1ccc2nc3n(c2c1)C12CCC(CC1)CN(CCOc1c(cnn1C)-c1cc(cn(C)c1=O)C(=O)N3)C2 [Example A125]")
"3.74 µM"
>>> reported_result("Cc1cc2cc(n1)-c1cnn(C)c1OCCN1CC3CCC(CC3)(C1)n1c(nc3ccc(N4CCC5(CCN(C)CC5)C4)cc31)NC2=O [Example B31]")
"1.68 µM"
>>> reported_result("Cc1cc2cc(n1)-c1cnn(C)c1OCCN1CC3CCC(C3)(C1)n1c(nc3ccccc31)NC2=O (single isomer, unassigned) [Example B8A]")
"6.39 µM"
>>> reported_result("CN(C)CCN(C)c1ccc2nc3n(c2c1)C12CCC(CC1)CN(CCOc1c(cnn1C)-c1cc(cn(C)c1=O)C(=O)N3)C2 [Example A124]")
"3.79 µM"
>>> reported_result("Cc1cc2cc(n1)-c1cnn(C)c1OCCN1CC3CCC(C3)(C1)n1c(nc3ccccc31)NC2=O (stereo not shown) [Example B8B]")
"2.71 µM"
>>> reported_result("Cc1cc2cc(n1)-c1cnn(C)c1OCCN(CC(F)F)CCn1c(nc3ccccc31)NC2=O [Example B5]")
"2.83 µM"
>>> reported_result("Cc1cc2cc(n1)-c1cnn(C)c1OCCN1CC3CCC(C3)(C1)n1c(nc3ccc(N4CCC5(CN(C)C5)C4)cc31)NC2=O (single isomer, unassigned) [Example B50B]")
"1.57 µM"
>>> reported_result("C[C@@H]1CCCOc2cc(F)c(F)cc2-c2cc(cn(C)c2=O)C(=O)Nc2nc3ccc(N4CCN(C)CC4)cc3n2C1 [Example A111]")
"8.23 µM"
>>> reported_result("Cc1cc2cc(n1)-c1cnn(C)c1OCCN1CC3CCC(CC3)(C1)n1c(nc3ccc(N4CCC5(CN(C)C5)C4)cc31)NC2=O [Example B37]")
"5.04 µM"
>>> reported_result("CN1CCC2(CC1)CCN(c1ccc3nc4n(c3c1)C13CCC(CC1)CN(CCOc1c(cnn1C)-c1cc(cn(C)c1=O)C(=O)N4)C3)C2 [Example A123]")
"6.11 µM"

###

# ASSAYED TARGET: EGFR[T790M/C797S/d746-750] (Homo sapiens, UniProt P00533, C797S/DEL746-750/T790M)
# Construct: purchased Carna Bio
# Sequence (P00533 with tags, fused parts or gaps DEL746-750/T790M/C797S limits assumed): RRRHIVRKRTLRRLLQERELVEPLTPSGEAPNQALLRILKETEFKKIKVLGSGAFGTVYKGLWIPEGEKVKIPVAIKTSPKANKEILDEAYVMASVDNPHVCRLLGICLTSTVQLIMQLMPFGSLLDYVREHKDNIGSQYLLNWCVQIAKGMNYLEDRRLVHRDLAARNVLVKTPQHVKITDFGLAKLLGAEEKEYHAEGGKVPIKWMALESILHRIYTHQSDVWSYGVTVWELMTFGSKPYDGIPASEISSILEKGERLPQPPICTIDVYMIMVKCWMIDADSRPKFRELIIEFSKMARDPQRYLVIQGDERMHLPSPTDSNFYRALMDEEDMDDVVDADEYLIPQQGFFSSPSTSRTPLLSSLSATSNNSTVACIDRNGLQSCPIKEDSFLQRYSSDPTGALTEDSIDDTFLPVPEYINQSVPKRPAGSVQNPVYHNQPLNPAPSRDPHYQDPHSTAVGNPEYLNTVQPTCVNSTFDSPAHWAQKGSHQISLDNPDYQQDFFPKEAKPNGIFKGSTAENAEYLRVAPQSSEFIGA
# ASSAY EXPLANATION: Inhibition of EGFR[T790M/C797S/d746-750] biochemical enzymatic activity (HTRF)
# CONDITION: EGFR[T790M/C797S/d746-750], 1 mM ATP, 1 h at room temperature, read-out: IC50 @T790M - C797S - Del19
pIC50: −log10 of the molar value.
Decision: pIC50 compared against 7; not below it gives met, below it gives not met.

>>> class_label("Cc1cc2cc(n1)-c1cnn(C)c1OCCN1CC3CCC(CC3)(C1)n1c(nc3ccc(N(C)CCN(C)C)cc31)NC2=O [Example B32]")
"met"
>>> class_label("Cc1cc2cc(n1)-c1cnn(C)c1OCCN1CC3CCC(C3)(C1)n1c(nc3ccc(N4CCN(C)CC4)cc31)NC2=O (single isomer, unassigned) [Example B9A]")
"not met"
>>> class_label("Cc1cc2cc(n1)-c1cnn(C)c1OCCN1CC3CCC(C3)(C1)n1c(nc3ccc(N4CCC5(CCN(C)CC5)C4)cc31)NC2=O (single isomer, unassigned) [Example B51A]")
"not met"
>>> class_label("Cc1cc2cc(n1)-c1cnn(C)c1OCCN1CC3CCC(CC3)(C1)n1c(nc3ccc(N4CC[C@@H](N(C)C)C4)cc31)NC2=O [Example B29]")
"met"
>>> class_label("Cc1cc2cc(n1)-c1cnn(C)c1OCCN1CC3CCC(C3)(C1)n1c(nc3ccc(N4CCC(N5CCOCC5)C4)cc31)NC2=O (single isomer, unassigned) [Example B44B2]")
"met"
>>> class_label("Cc1cc2cc(n1)-c1cnn(C)c1OCCN1CC3CCC(C3)(C1)n1c(nc3ccc(N(C)CCCN(C)C)cc31)NC2=O (single isomer, unassigned) [Example B45A]")
"not met"
